Data provenance is ChEMBL document CHEMBL1124866.

Answer each item with its documented inhibition at 100 µM.
tested on: Jurkat; experiment: Activity on rosetting of jurkat T-cells with SRBC at the concentration of 10e-4 M; assay type: functional; conditions: Homo sapiens
Peptide text beside a SMILES is read from it.
Don't forget the unit after the number, please.

Please review the following examples before continuing.
• NCCCC[C@H](NC(=O)[C@H](CC(=O)O)NC(=O)[C@@H](N)CO)C(=O)O (H-Ser-Asp-Lys-OH) = 40%
• CC(=O)N[C@@H](CO)C(=O)N[C@@H](CC(=O)O)C(=O)O (Ac-Ser-Asp-OH) = 30%
• NCCCC[C@H](NC(=O)[C@H](CC(=O)O)NC(=O)[C@@H](N)CO)C(=O)N1CCC[C@H]1C(=O)O (H-SDKP-OH) = 25%
• CC(=O)N[C@@H](CO)C(=O)N[C@@H](CC(=O)O)C(=O)N[C@@H](CCCCN)C(=O)N1CCC[C@H]1C(=O)O (stereo in doubt; form 1) [GORALATIDE] = 48%
• CC(=O)N[C@@H](CO)C(=O)N[C@@H](CC(=O)O)C(=O)N[C@@H](CCCCN)C(=O)O (Ac-Ser-Asp-Lys-OH) = 44%

Value of inhibition at 100 µM reported for the compound N[C@@H](CO)C(=O)N[C@@H](CC(=O)O)C(=O)O (H-Ser-Asp-OH) is 31%
